Every entry's value here was drawn from paper PMC8777765.

These compounds were tested on Aspergillus oryzae α-amylase (Aspergillus oryzae); IC50 is the recorded read-out.
Express your answer in µM, writing the number without its unit.

Exam item: I'd like to know its IC50. The compound in question is COc1cccc(C(=O)C2=C(O)c3ccccc3S(=O)(=O)N2CC(=O)Nc2cccc([N+](=O)[O-])c2)c1 [Compound 12e]
Marked response: 37.5

Exam item: I'd like to know its IC50. The compound in question is COc1cccc(C(=O)C2=C(O)c3ccccc3S(=O)(=O)N2)c1
Marked response: 147

Exam item: I'd like to know its IC50. The compound in question is COc1cccc(C(=O)C2=C(O)c3ccccc3S(=O)(=O)N2CC(=O)Nc2ccc(Cl)cc2)c1 [Compound 12c]
Marked response: 125

Exam item: I'd like to know its IC50. The compound in question is COc1cccc(C(=O)C2=C(O)c3ccccc3S(=O)(=O)N2CC(=O)Nc2cccc(C)c2)c1 [Compound 12k]
Marked response: 67.2

* * *

I'd appreciate it if you could supply melting point values for the items below.

Exam item: I'd like to know its melting point. The compound in question is COc1cccc(C(=O)C2=C(O)c3ccccc3S(=O)(=O)N2CC(=O)Nc2ccccc2C)c1 [Compound 12j]
Marked response: 166 °C

Exam item: I'd like to know its melting point. The compound in question is COc1cccc(C(=O)C2=C(O)c3ccccc3S(=O)(=O)N2CC(=O)Nc2cccc([N+](=O)[O-])c2)c1 [Compound 12e]
Marked response: 189 to 190 °C

Exam item: I'd like to know its melting point. The compound in question is COc1cccc(C(=O)C2=C(O)c3ccccc3S(=O)(=O)N2CC(=O)Nc2ccccc2Br)c1 [Compound 12g]
Marked response: 169 to 171 °C

Exam item: I'd like to know its melting point. The compound in question is COc1ccc(NC(=O)CN2C(C(=O)c3cccc(OC)c3)=C(O)c3ccccc3S2(=O)=O)cc1 [Compound 12m]
Marked response: 201 to 202 °C

Exam item: I'd like to know its melting point. The compound in question is COc1cccc(C(=O)C2=C(O)c3ccccc3S(=O)(=O)N2CC(=O)Nc2ccc(Cl)cc2)c1 [Compound 12c]
Marked response: 146 to 147 °C

Exam item: I'd like to know its melting point. The compound in question is COc1cccc(C(=O)C2=C(O)c3ccccc3S(=O)(=O)N2CC(=O)Nc2cccc(C)c2)c1 [Compound 12k]
Marked response: 150 to 151 °C

Exam item: I'd like to know its melting point. The compound in question is COc1cccc(C(=O)C2=C(O)c3ccccc3S(=O)(=O)N2CC(=O)Nc2ccccc2Cl)c1 [Compound 12a]
Marked response: 186 to 187 °C

Exam item: I'd like to know its melting point. The compound in question is COc1cccc(C(=O)C2=C(O)c3ccccc3S(=O)(=O)N2CC(=O)Nc2cccc(Br)c2)c1 [Compound 12h]
Marked response: 132 to 133 °C

Exam item: I'd like to know its melting point. The compound in question is COc1cccc(C(=O)C2=C(O)c3ccccc3S(=O)(=O)N2CC(=O)Nc2ccc([N+](=O)[O-])cc2)c1 [Compound 12f]
Marked response: 176 to 177 °C

* * *

Parameter Measured: pKi
# log scale: pKi equals minus log10 of the concentration in mol/L

Exam item: Provide value of pKi for this record tested with α-amylase (Aspergillus oryzae, UniProt P0C1B3): COc1cccc(C(=O)C2=C(O)c3ccccc3S(=O)(=O)N2CC(=O)Nc2ccc(Br)cc2)c1 [Compound 12i]
Marked response: 4.15
